subject_of_test: CGRP receptor (SK-N-MC membrane) (Homo sapiens, UniProt O60894+Q16602)
Construct: Purified SK-N-MC membrane was purchased from Perkin Elmer
Sequence (Q16602 23-461): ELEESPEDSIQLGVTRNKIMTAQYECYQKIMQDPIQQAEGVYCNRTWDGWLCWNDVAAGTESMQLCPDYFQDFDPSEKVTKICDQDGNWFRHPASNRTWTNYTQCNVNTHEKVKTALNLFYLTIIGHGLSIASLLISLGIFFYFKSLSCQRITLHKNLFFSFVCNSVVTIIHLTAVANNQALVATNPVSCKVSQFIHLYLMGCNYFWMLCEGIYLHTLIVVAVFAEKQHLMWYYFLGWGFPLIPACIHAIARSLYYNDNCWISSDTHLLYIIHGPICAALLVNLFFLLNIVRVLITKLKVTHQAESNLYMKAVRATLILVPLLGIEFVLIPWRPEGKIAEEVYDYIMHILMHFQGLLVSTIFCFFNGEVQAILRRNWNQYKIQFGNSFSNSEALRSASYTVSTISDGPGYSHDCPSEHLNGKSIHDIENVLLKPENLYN
Sequence (O60894 27-148): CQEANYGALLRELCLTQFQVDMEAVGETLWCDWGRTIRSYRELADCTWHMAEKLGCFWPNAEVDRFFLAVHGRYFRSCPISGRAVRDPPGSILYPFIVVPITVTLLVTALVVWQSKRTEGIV
method_notes: I125-CGRP binding displacement assay on purified SK-N-MC membrane
Can you tell me Ki for the items I'm about to list?

Here is how some molecules turned out for Ki.
{"columns": ["molecule", "observation_type", "result"],
 "data": [
  ["CC(C)(C)CCN1C(=O)[C@H](CC(=O)N2CCC(N3Cc4ccccc4NC3=O)CC2)S[C@H]1c1cccc(F)c1N1CCC(O)C1 (stereo partly drawn)", "Ki", "< 1000 nM"],
  ["CN1CCN(c2ccc(F)cc2C2SC(CC(=O)N3CCC(n4c(=O)[nH]c5ccccc54)CC3)C(=O)N2CCC(C)(C)C)CC1 (stereo not drawn)", "Ki", "< 1000 nM"]
]}

Please look at the following molecule next.
Identify measured Ki associated with CC(C)CN1C(=O)[C@H](CC(=O)N2CCC(N3CCc4ccccc4NC3=O)CC2)SC1c1cccc(F)c1N1CCN(C(C)(C)C)CC1 (stereo partly drawn) [Compound 493] < 1000 nM

* * *

subject_of_test: endogenous CGRP receptor (Homo sapiens, UniProt O60894+Q16602)
method_notes: CGRP functional antagonism using SK-N-MC-BLA (4C10), β-lactamase transcriptional reporter assay
Format: cell-based
experimental_context: SK-N-MC (4C10) cells, inhibition of β-lactamase expression in the presence of 200 pM CGRP
pIC50: −log10 of the molar value.
Can you tell me pIC50 for the items I'm about to list?

Here is how some compounds turned out for pIC50.
{"columns": ["compound", "pIC50"],
 "data": [
  ["O=C(CC1SC(c2ccccc2)N(CC2CCCO2)C1=O)N1CCC(N2Cc3ccccc3NC2=O)CC1 (stereo not shown)", "> 6.00"],
  ["COCCN1C(=O)[C@H](CC(=O)N2CCC(N3CCc4ccccc4NC3=O)CC2)SC1c1cccc(F)c1N1CCN(C(C)(C)C)CC1 (stereo partly shown) [Compound 533]", "> 6.00"],
  ["CC(=O)Nc1ccc(C)cc1C1(O)CCN(C(=O)CC2SC(c3ccccc3)N(CCC(C)C)C2=O)CC1 (stereo not shown)", "< 5.30"]
]}

Please look at the following compound next.
Identify measured pIC50 associated with COc1cccc(C2SC(CC(=O)N3CCC(N4Cc5ccccc5NC4=O)CC3)C(=O)N2CCC(C)C)c1 (stereo not shown) 5.30 to 6.00

* * *

Can you tell me IC50 for the items I'm about to list?
subject_of_test: endogenous CGRP receptor (Homo sapiens, UniProt O60894+Q16602)
method_notes: CGRP functional antagonism using SK-N-MC-BLA (4C10), β-lactamase transcriptional reporter assay
experimental_context: SK-N-MC (4C10) cells, inhibition of β-lactamase expression in the presence of 200 pM CGRP

Here is how some compounds turned out for IC50.
{"columns": ["compound", "subject_of_test", "result"],
 "data": [
  ["CC(C)CCN1C(=O)C(CC(=O)N2CCC(N3Cc4ccccc4NC3=O)CC2)[S+]([O-])C1c1ccccc1 (centres unmarked) [Compound 118]", "endogenous CGRP receptor (Homo sapiens, UniProt O60894+Q16602)", "1000 to 5000 nM"],
  ["CN1CCN(c2ccc(F)cc2C2SC(CC(=O)N3CCC(N4Cc5ccccc5NC4=O)CC3)C(=O)N2CCC(C)(C)C)CC1 (centres unmarked) [Compound 351]", "endogenous CGRP receptor (Homo sapiens, UniProt O60894+Q16602)", "1000 to 5000 nM"]
]}

Give IC50 for all compounds that follow.
1. N#Cc1ccccc1C1SC(CC(=O)N2CCC(N3CCc4ccccc4NC3=O)CC2)C(=O)N1CC1CCCCC1 (centres unmarked) [Compound 175]
2. CCN1CCC2(CC1)SC(CC(=O)N1CCC(N3CCc4ccccc4NC3=O)CC1)C(=O)N2CCC(C)(C)C (centres unmarked) [Compound 288]

["< 1000 nM", "< 1000 nM"]

Give IC50 for all compounds that follow.
1. O=C(CC1SC(c2ccccc2)N(Cc2ccncc2)C1=O)N1CCC(n2c(=O)[nH]c3ccccc32)CC1 (centres unmarked) [Compound 108]
2. CCC1SC(CC(=O)N2CCC(n3cc(-c4ccccc4)[nH]c3=O)CC2)C(=O)N1CC1CC1 (centres unmarked) [Compound 146]
3. CN1CCN(c2ccc(F)cc2[C@H]2S[C@@H](CC(=O)N3CCC(n4c(=O)[nH]c5ncccc54)CC3)C(=O)N2CCC(C)(C)C)CC1 [Compound 397]
4. O=C(CC1SC(c2cccc(F)c2F)N(CC2CCCCC2)C1=O)N1CCC(N2Cc3ccccc3NC2=O)CC1 (centres unmarked) [Compound 92]
5. CC(C)CCN1C(=O)C(CC(=O)N2CCC(n3c(=O)[nH]c4ccccc43)CC2)SC1c1ccccc1-n1cccn1 (centres unmarked) [Compound 291]
6. CN1CCN(c2ccccc2C2N(CCC(C)(C)C)C(=O)C(CC(=O)N3CCC(N4Cc5ccccc5NC4=O)CC3)[S+]2[O-])CC1 (centres unmarked) [Compound 307]

1: > 5000 nM; 2: > 5000 nM; 3: > 5000 nM; 4: < 1000 nM; 5: < 1000 nM; 6: < 1000 nM

Give IC50 for all compounds that follow.
1. O=C(CC1SC(c2ccccc2)N(CC(F)(F)C(F)(F)F)C1=O)N1CCC(N2Cc3ccccc3NC2=O)CC1 (centres unmarked) [Compound 36]
2. CC(=O)C1(c2ccccc2)CCN(C(=O)CC2SC(c3ccccc3)N(CCC(C)C)C2=O)CC1 (centres unmarked) [Compound 141]

1. < 1000 nM
2. > 5000 nM

Give IC50 for all compounds that follow.
1. CC(C)CCN1C(=O)C(CC(=O)N2CCC(N3Cc4ccccc4NC3=O)CC2)SC1c1ccc(S(C)(=O)=O)cc1 (centres unmarked) [Compound 5]
2. CC(C)CCN1C(=O)C(CC(=O)N2CCC(n3cc(-c4ccccc4)[nH]c3=O)CC2)SC1C1CCCC1 (centres unmarked) [Compound 87]

1: 1000 to 5000 nM; 2: 1000 to 5000 nM
